Measured activity change, negative = inhibition of individual entries
# Assay Protocol: NFAT Signaling Pathway (AID 444);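 note: carbachol stimulus at about its EC50 of 1 µM final; % is set by controls: 0 for no effect and ±100 for the full control effect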
# Run Conditions: Jurkat NFAT-bla M1, carbachol, beta-lactamase ratio, 5 h; at 7.69 µM (top of the series) unless noted
Results filed as inconclusive are left out.
Number only, in %; omit the unit.

{"columns": ["Smiles Str", "Scale Unit", "activity change, negative = inhibition"],
 "data": [
  ["Nc1ccc(S(=O)(=O)NCCS(=O)(=O)O)cc1", "%", 6.94],
  ["OC[C@@H]1O[C@@H](O)[C@H](N=Cc2ccc3c(c2)OCO3)[C@@H](O)[C@@H]1O", "%", 3.26],
  ["Cn1c(=O)c(CCc2ccccc2)nc2cnc(N3CCNCC3)nc21", "%", 8.46],
  ["NC[C@@H](O)CSCc1ccc(Cl)cc1", "%", 21.3]
]}

Query: Identify measured activity change, negative = inhibition corresponding to `COCCn1c(=O)cnc2cnc(N3CCNCC3)nc21`
Reply: -7.03

Query: // Input: `Cn1c(=O)c2[nH]c(SCCN3CCOCC3)nc2n(C)c1=S` . Output its activity change, negative = inhibition only.
Reply: 15.6

Query: Recall and state the measured activity change, negative = inhibition for `CSc1nnnc2ccccc12` .
Reply: 3.54

Query: Give activity change, negative = inhibition for `Cc1ccc(NC(=O)c2ccccc2C(=O)O)cc1C`
Reply: -27.9

Query: Let me know recorded activity change, negative = inhibition for `CCN(CCO)C[C@H]1CCC[C@H]2CCCC[C@@H]21` , thanks.
Reply: 0.328

Query: Determine from records and report activity change, negative = inhibition for `O=C(O)c1ccccc1-c1ccccc1C(=O)Nc1ccc2c(c1)[nH]c(=O)c1ccccc12`
Reply: 1.08

Query: Tell me measured activity change, negative = inhibition for `O=C1c2ccccc2-c2ccc(NC(=O)[C@H]3CCCC[C@@H]3C(=O)O)cc21` please.
Reply: 13.7

* * *

Parameter: activity, negative = inhibition. Scope: all listed entries.
# Assay Protocol: Stat Signaling Pathway (AID 446);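 note: ME-180 cervical cancer cells given 40 pM IL-6 alongside compound; SIE-controlled beta-lactamase reporter measured as 460/530 nm FRET emission ratio; % is set by controls: 0 for no effect and ±100 for the full control effect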
# Run Conditions: ME-180 (cervical carcinoma) SIE beta-lactamase reporter, IL-6 stimulated, 5 h; at 7.69 µM (top of the series) unless noted
Records with an inconclusive call do not appear. Calls of active or inactive are those of the source. Calls follow the shape of the dose curve; as a rule, active = well fitted curve in either direction with a large enough effect (not every such curve was filed as active); inconclusive = small, poorly fitted or top-dose-only effect, or another doubt; inactive = flat fitted curve, though single readings scatter.

{"columns": ["Smiles Str", "Experimental Endpoint", "Meas Value"],
 "data": [
  ["N[C@@H](Cc1c[nH]c2ccc([N+](=O)[O-])cc12)C(=O)O", "activity, negative = inhibition", "3.4% (inactive)"],
  ["Cn1c(=O)c2c(nc(C(=N)SCC(=O)O)n2C)n(C)c1=O", "activity, negative = inhibition", "-6.13% (inactive)"],
  ["CC(=O)Nc1ccc2c(c1)/C(=C/c1ccc([N+](C)(C)C)cc1)c1ccccc1-2", "activity, negative = inhibition", "4.17% (inactive)"],
  ["CC(=O)O[C@@H]1CC[C@]2(C)C(=C[C@@H]([C@@H]3C=C4C[C@@H](OC(C)=O)CC[C@]4(C)C4=C3[C@H]3C[C@@H]5O[C@@]6(CC[C@H](C)CO6)[C@@H](C)[C@@H]5[C@@]3(C)CC4)C3=C2CC[C@@]2(C)[C@H]4[C@@H](C)[C@]5(CC[C@H](C)CO5)O[C@@H]4C[C@H]32)C1", "activity, negative = inhibition", "-1.63% (inactive)"],
  ["COc1cc(OC)cc([C@H](CNc2ncnc3c2ncn3[C@@H]2O[C@@H](CO)[C@H](O)[C@@H]2O)c2ccccc2C)c1", "activity, negative = inhibition", "3.32% [at 38 µM] (inactive)"]
]}

Query: Recall and state the measured activity, negative = inhibition for `CC1(C)O[C@H]2[C@@H](O1)[C@@H](On1nnc3ccc(Cl)cc31)O[C@@H]2[C@@H]1COC(C)(C)O1` .
Reply: 2.63% (inactive)

* * *

# Assay Protocol: qHTS assay for small molecule antagonists of retinoid X receptor alpha signaling (AID 588546);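 note: cells stimulated with 9-cis-retinoic acid as agonist; % is set by controls: 0 for no effect and ±100 for the full control effect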
# Run Conditions: HEK293T RXRa-UAS-bla, beta-lactamase ratio, antagonist mode; measured here: W530 green channel, cytotoxicity proxy
Results filed as inconclusive are left out.
Each record here notes measured max response.
Value expressed in %; do not type the unit.

{"columns": ["Compound", "max response / %"],
 "data": [
  ["CC1=C(/C=C/C(C)=C/C=C/C(C)=C/C=O)C(C)(C)CCC1", -0.803],
  ["CCCCCCCCC1CO1 (stereo unspecified)", -6.6],
  ["CCCCC(CC)COCCCN (stereo unspecified)", 3.99],
  ["Cc1ccc2ccc3cccc4ccc1c2c34", -6.82]
]}

Query: Please indicate max response recorded for `C=C(C#N)C(=O)OCC`
Reply: -6.72

Query: Please look at this compound and report its max response: CCCCC(CC)COP(=O)(OCC(CC)CCCC)OCC(CC)CCCC (stereo unspecified)
Reply: -7.24

* * *

// reported activity change, negative = inhibition for each item listed
# Assay Protocol: NFAT Signaling Pathway (AID 444);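 note: carbachol stimulus at about its EC50 of 1 µM final; % is set by controls: 0 for no effect and ±100 for the full control effect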
# Run Conditions: Jurkat NFAT-bla M1, carbachol, beta-lactamase ratio, 5 h; at 7.69 µM (top of the series) unless noted
Results filed as inconclusive are left out.
Quick reminder: number only, in %, skip the unit.

Below are worked cases with known answers.
{"columns": ["Smiles Str", "Experimental Endpoint", "Scale Unit", "Meas Value"],
 "data": [
  ["CN1CCN(CC(=O)Nc2cccc3ccccc23)CC1", "activity change, negative = inhibition", "%", 5.99],
  ["Nc1nc2c(C(=O)NCc3cccs3)nnn2c2cccc(Cl)c12", "activity change, negative = inhibition", "%", -1.34]
]}

Query: Please indicate activity change, negative = inhibition recorded for `O=C(O)c1ccc(C(=O)O)c(C(=O)O)c1.[NH-][C@@H]1CCCC[C@@H]1[NH-].[Pt]`
Reply: -9.87

* * *

# Assay Protocol: qHTS assay for small molecule antagonists of the retinoid-related orphan receptor gamma (ROR-gamma) signaling pathway - cell viability counter screen (AID 720652);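 note: compound exposure lasted 16 hr before ATP read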
# Run Conditions: RORgamma reporter cell line viability counter screen; series mostly up to 92.2 µM
Results filed as inconclusive are left out. Calls of active or inactive are those of the source. Calls follow the shape of the dose curve; as a rule, active = well fitted cell-killing curve with a large enough effect in the repeat runs; inconclusive = weak or mixed curves, or effect the other way; inactive = flat fitted curve, though single readings scatter.
// allowed return values: 1 (yes) = active, 0 (no) = inactive

Take a look at these entries with their results.
{"columns": ["Compound", "Qualitative Label"],
 "data": [
  ["Oc1cc(Cl)cc(Cl)c1Cl", "0 (no)"],
  ["CCOc1ccc2nc(N)sc2c1", "0 (no)"],
  ["CC(=O)Nc1cccc(C)c1", "0 (no)"]
]}

Kindly review the next compound as well.
Query: Any idea what this test logged for `C/C=C/C=C/C=O` ?
Reply: 1 (yes)

* * *

# Experimental System: Cytochrome P450 1A2 (Homo sapiens) (UniProt P05177)
# Sequence (P05177 whole entry, looked up): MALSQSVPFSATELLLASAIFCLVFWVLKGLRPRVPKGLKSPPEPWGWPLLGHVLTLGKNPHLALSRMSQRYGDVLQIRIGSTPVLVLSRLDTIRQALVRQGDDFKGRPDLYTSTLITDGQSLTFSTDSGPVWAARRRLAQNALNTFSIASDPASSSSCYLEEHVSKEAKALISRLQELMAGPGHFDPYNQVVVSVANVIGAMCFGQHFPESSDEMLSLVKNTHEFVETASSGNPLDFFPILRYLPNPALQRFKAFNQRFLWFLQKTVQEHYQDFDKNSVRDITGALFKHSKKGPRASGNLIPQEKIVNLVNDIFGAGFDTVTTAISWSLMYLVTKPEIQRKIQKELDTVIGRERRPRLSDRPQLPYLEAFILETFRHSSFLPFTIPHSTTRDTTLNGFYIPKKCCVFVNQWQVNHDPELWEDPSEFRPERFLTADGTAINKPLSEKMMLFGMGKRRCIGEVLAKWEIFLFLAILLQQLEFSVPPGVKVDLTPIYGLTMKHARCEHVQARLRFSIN
# Assay Protocol: p450-cyp1a2 (AID 410)
# Run Conditions: recombinant CYP1A2, luciferin-ME demethylation, luminescence; series mostly up to 11.4 µM
Inconclusive results are not listed. Activity calls are given as the source filed them. Calls come from the whole dose curve.
The reply should name one outcome from active, inactive

{"columns": ["Smiles Str", "Qualitative Label"],
 "data": [
  ["Cc1ccc2c(c1)N[C@H](c1ccc(C(=O)O)cc1)c1cccn1-2", "active"],
  ["CC1=CC(=O)CC(C)(C)[C@]1(O)/C=C\\C(C)=C\\C(=O)O", "inactive"],
  ["N#CCCn1c(=O)c(-c2ccccc2)nc2cnc(OCc3ccccc3)nc21", "active"],
  ["OC[C@@H]1O[C@H](O)[C@@H](Cl)[C@H](O)[C@@H]1O", "inactive"],
  ["C[C@H]1C[C@@H]2[C@H]3CCC4=CC(=O)C=C[C@@]4(C)[C@@]3(Cl)[C@@H](O)C[C@]2(C)[C@]1(OC(=O)c1ccco1)C(=O)CCl", "active"],
  ["CC(=NCC(=O)O)c1ccccc1", "active"]
]}

Query: Can you look up the reported call for `Nc1nc(Cc2ccccc2)nc(Cc2ccccc2)c1-c1ccccc1` for me?
Reply: active

Query: Hi, sorry to bother you, what did the test record for `C/C(C[n+]1ccccc1)=N\N=C(N)N` ?
Reply: inactive

Query: I'd appreciate the recorded outcome for `O=C(O)[C@@H]1[C@@H]2C[C@@H]3[C@@H](OC(=O)[C@@H]31)[C@H]2Br` from this test.
Reply: inactive

Query: In this assay, the call recorded for `O=C(O)[C@H](CCc1ccccn1)c1ccccc1` was what?
Reply: inactive

* * *

# Experimental System: Glucocorticoid receptor (Homo sapiens) (UniProt P04150)
# Sequence (P04150 whole entry, looked up): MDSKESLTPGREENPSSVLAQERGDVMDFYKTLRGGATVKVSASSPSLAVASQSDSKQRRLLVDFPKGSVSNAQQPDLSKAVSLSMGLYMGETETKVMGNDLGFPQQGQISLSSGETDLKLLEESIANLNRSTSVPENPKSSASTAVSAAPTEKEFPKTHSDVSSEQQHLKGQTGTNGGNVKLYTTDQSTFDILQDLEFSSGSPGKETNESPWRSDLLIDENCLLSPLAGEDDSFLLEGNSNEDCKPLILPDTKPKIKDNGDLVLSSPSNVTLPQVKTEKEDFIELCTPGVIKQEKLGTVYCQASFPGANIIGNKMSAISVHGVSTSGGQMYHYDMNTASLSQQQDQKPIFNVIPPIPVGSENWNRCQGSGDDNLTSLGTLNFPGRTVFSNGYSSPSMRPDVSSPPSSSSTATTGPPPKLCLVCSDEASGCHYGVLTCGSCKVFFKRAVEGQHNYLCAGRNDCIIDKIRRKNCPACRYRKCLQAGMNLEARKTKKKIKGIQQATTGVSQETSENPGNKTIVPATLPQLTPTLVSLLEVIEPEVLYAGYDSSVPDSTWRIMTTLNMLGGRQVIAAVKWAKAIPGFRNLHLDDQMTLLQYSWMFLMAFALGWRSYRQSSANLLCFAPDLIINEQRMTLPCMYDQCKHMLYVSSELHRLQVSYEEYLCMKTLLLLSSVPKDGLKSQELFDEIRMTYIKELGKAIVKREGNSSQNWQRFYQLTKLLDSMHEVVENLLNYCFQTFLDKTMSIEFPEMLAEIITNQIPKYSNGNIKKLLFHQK
# Assay Protocol: GR-EFC Redistribution (AID 451); note: potency is the fitted concentration of half-maximal effect
# Run Conditions: CHO-K1 GR-EFC translocation, beta-gal luminescence, 2 h
Activity calls are given as the source filed them. The call rests on the fitted dose curve.
# Potency listing for each entry below

Reference set (4 entries):
{"columns": ["Compound", "Experimental Endpoint", "Meas Value"],
 "data": [
  ["COc1ccc2c(c1)CCC1C2CC[C@]2(C)[C@H](NCCCCCCN3C(=O)C=CC3=O)CC[C@@H]12 (stereo not given in full)", "Potency", "> 46 µM (inactive)"],
  ["Nc1nc(N)c2[nH]cnc2n1 (tested in a mixture with another compound)", "Potency", "> 9.22 µM (inactive)"],
  ["NNC(=O)[C@@H](O)[C@H](O)[C@H](O)CO", "Potency", "> 9.22 µM (inactive)"],
  ["CC(C)(CN)CN", "Potency", "> 9.22 µM (inactive)"]
]}

Query: Supply reported Potency belonging to this compound: `CC(=O)/C(=C\c1ccccc1F)C(=O)c1ccccc1`
Reply: > 9.22 µM (inactive)

Query: Return Potency for the following compound: `C[N+](C)(N)Cc1nc(-c2ccc(Cl)cc2)no1`
Reply: > 9.22 µM (inactive)

Query: Dear colleague, please send me the reported Potency for `O=C(O)c1ccc(C(=O)O)c(C(=O)Nc2ccc3c(c2)Cc2ccccc2-3)c1` when you can.
Reply: > 9.22 µM (inactive)

Query: Check the records and state Potency for `c1cncc(CNc2ncn[nH]2)c1`
Reply: > 9.22 µM (inactive)

Query: Report measured Potency; entry is `CC1=C(C(=O)O)N2C(=O)[C@@H](NC(=O)[C@@H](N)C3=CCC=CC3)[C@@H]2SC1`
Reply: > 46 µM (inactive)

Query: Identify Potency associated with the compound `O=S(=O)(C[C@H](O)C(Cl)(Cl)Cl)NNc1ccccc1`
Reply: > 9.22 µM (inactive)

Query: Look up and state reported Potency for `NCCSc1nc(-c2ccccc2)c(-c2ccccc2)o1`
Reply: > 9.22 µM (inactive)

Query: Using the record for `CC1(C)O[C@@H]2O[C@H]([C@@H]3COC(C)(C)O3)[C@H](N)[C@H]2O1` , state its measured Potency.
Reply: > 9.22 µM (inactive)

Query: For the compound `COc1ncc2nc(-c3ccc(Cl)cc3)c(=O)n(C[C@H]3CCCO3)c2n1` , give its reported Potency.
Reply: > 46 µM (inactive)

Query: Indicate the recorded Potency value for this compound: `Cc1ccc(C)c(NC(=O)NCc2ccc(Cl)cc2)c1`
Reply: > 9.22 µM (inactive)

Query: Using known records, supply Potency for `Nc1nc2c(c(=O)[nH]1)CN(CCCN1CCOCC1)CN2`
Reply: > 9.22 µM (inactive)
